System: PfAP2-G AP2 domain (GST-tagged)
protocol.text: gcPBM binding intensity (ln(normalized median fluorescence intensity)); higher = stronger DNA binding
Whole data set: some 25,000 sequences, median “ln(normalized median fluorescence intensity)” near 10, cut for the highest 2% near 12. The full list was thinned out, with the highest values kept by preference.
Reported gcPBM binding intensity (ln) by item:
value.type: gcPBM binding intensity (ln)

residues: GTTATTCTTAATTTTTGTACACATTTTTATATTATT [XGTACX_site7227]
value.type: gcPBM binding intensity (ln)
numeric.readout: 11.4
//
residues: ACTTCAAAAATAAACTGTACGTAAAAAAAAAAAAAA [XGTACX_site795]
value.type: gcPBM binding intensity (ln)
numeric.readout: 11.5
//
residues: TAATAATAAAAAATACGTACATATTATTTATATATG [XGTACX_site853]
value.type: gcPBM binding intensity (ln)
numeric.readout: 11.4
//
residues: GTAATATTATATAGTTGTACTTTTTTTTTATTATAT [XGTACX_site483]
value.type: gcPBM binding intensity (ln)
numeric.readout: 11.5
//
residues: TTCAATATACATATGTGTACTAAAATAAATAGAAAA [XGTACX_site5708]
value.type: gcPBM binding intensity (ln)
numeric.readout: 11.3
//
residues: TGTATTATTAATATTTGTACGTAATAATAAAAACAT [XGTACX_site3716]
value.type: gcPBM binding intensity (ln)
numeric.readout: 11.5
//
residues: AACTGTAATTTTATACGTACATAAATAATATTATAT [XGTACX_site4277]
value.type: gcPBM binding intensity (ln)
numeric.readout: 11.7
//
residues: ATATATATAAATATATGTACTAATATATACATATAT [XGTACX_site2289]
value.type: gcPBM binding intensity (ln)
numeric.readout: 11
//
residues: TGCACAAAATTATGCACACACCTAAAATTAATTTTT [CACACA_site5596]
value.type: gcPBM binding intensity (ln)
numeric.readout: 10.2

Where do the numbers come from? From the supplement of paper PMC11417369.
